Tested on: A2780^cisR cell line
Assay protocol: Binary sequenced combination study (MTT, CI and dose-effect parameters)
Type: cell-based, human
Condition summary: single drug, read-out: Dm (median effect dose)
pIC50: −log10 of the molar value.

- Compound: "[O-]c1cccc2cccnc12.[O-]c1cccc2cccnc12.[Pd+2] [NH3, [Bis(1,8-quinolato)palladium (II)]]"
  pIC50: 6.64
- Compound: "O=C(O[C@@H]1Cc2c(O)cc(O)cc2O[C@@H]1c1cc(O)c(O)c(O)c1)c1cc(O)c(O)c(O)c1 [EGCG, epigallocatechin gallate]"
  pIC50: 5.05

###

System: A2780 cell line
Assay protocol: Binary sequenced combination study (MTT, CI and dose-effect parameters)
Format: cell-based, human
Condition summary: Homo sapiens, single drug, read-out: Dm (median effect dose)
Procedure: Binary sequenced combinations of NH3 with curcumin and EGCG have been investigated in both ovarian and colorectal cancer models using four different cell lines. The method for determining single drug cytotoxicity and activity of drugs in sequenced combination was the same as described in our previous articles. […] The plates were then left to incubate under normal growth conditions for 72 h. […]
pIC50: −log10 of the molar value.

- Query smiles: "COc1cc(/C=C/C(=O)CC(=O)/C=C/c2ccc(O)c(OC)c2)ccc1O"
  pIC50: 5.06
